- studySystem: T1, Mst77F WT (UniProt P16909 1-215)
- T1 sequence: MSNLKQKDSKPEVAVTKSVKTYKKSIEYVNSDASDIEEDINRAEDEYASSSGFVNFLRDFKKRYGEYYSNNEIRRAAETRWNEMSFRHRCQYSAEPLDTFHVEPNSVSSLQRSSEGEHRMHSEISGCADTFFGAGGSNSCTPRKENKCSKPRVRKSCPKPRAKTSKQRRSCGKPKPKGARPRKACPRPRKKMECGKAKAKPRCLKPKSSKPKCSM
- experimentalDetails: FP
outcomeMeasure: pKd
Schema: pKd number; meaning minus log10 of the concentration expressed in molar units.

Quick one: pKd for random 12 bp DNA (dsDNA) DNA 1: GTACCACGGTAG DNA 2: CTACCGTGGTAC ?
6.96

Data origin, for the record: paper PMC4381051
